test system: Sagittaria pygmaea; experiment: Treatment of soil under submerged condition, pre-emergence (Test 4); type: in vivo; details: 30 g ai/a granule, 30 days later
Measured Metric: Herbicidal effects Sagittaria Pygmaea

What value of Herbicidal effects Sagittaria Pygmaea has been reported for the following molecule? COc1cccc(C=CCON=Cc2ccccc2Oc2nc(OC)cc(OC)n2)c1 [compound 38]
5 (0-5 (Death))

// query: C=CCON=Cc1ccccc1Oc1nc(OC)cc(OC)n1 [Compound No. 4]
4 (6-10 (Severe damages))

// query: COc1cc(OC)nc(Oc2ccccc2C=NOCC=Cc2cccc(Cl)c2Cl)n1 [compound 41]
5 (0-5 (Death))

// query: COc1cc(OC)nc(Oc2ccccc2C=NOCC=Cc2ccccc2Cl)n1 [Compound No. 27]
4 (6-10 (Severe damages))

// query: COc1cc(OC)nc(Oc2ccccc2C=NO)n1 [Compound No. 24]
4 (6-10 (Severe damages))

// query: COc1cc(OC)nc(Oc2ccccc2C=NOCc2ccc(Cl)c(Cl)c2)n1 [compound 18]
4 (6-10 (Severe damages))

// query: COc1cc(OC)nc(Oc2ccccc2C=O)n1 [B, reference compound]
5 (0-5 (Death))

// query: COc1cc(OC)nc(Oc2ccccc2C=NOCc2ccc(C)cc2)n1 [compound 19]
4 (6-10 (Severe damages))

// query: COc1cc(OC)nc(Oc2ccccc2C=NOCC=Cc2ccc(Cl)cc2)n1 [Compound No. 28]
3 (11-40 (Medium damages))

// query: CON=Cc1ccccc1Oc1nc(OC)cc(OC)n1 [Compound No. 1]
3 (11-40 (Medium damages))

// query: COc1cc(OC)nc(Oc2ccccc2C=NOCc2ccccc2Cl)n1 [compound 16]
4 (6-10 (Severe damages))

// query: CCc1ccc(C=CCON=Cc2ccccc2Oc2nc(OC)cc(OC)n2)cc1 [compound 37]
4 (6-10 (Severe damages))

// query: COc1cc(OC)nc(Oc2ccccc2C=NOC(C)C)n1 [compound 6]
4 (6-10 (Severe damages))

// query: COc1cc(OC)nc(Oc2ccccc2C=NOC(C)c2ccccc2)n1 (centres unmarked) [compound 21]
3 (11-40 (Medium damages))

// query: CCCC=CCON=Cc1ccccc1Oc1nc(OC)cc(OC)n1 [compound 25]
4 (6-10 (Severe damages))

// query: COc1cc(OC)nc(Oc2ccccc2C=NOCC=Cc2ccccc2C(F)(F)F)n1 [compound 32]
5 (0-5 (Death))

// query: C=C(C)CON=Cc1ccccc1Oc1nc(OC)cc(OC)n1 [compound 5]
5 (0-5 (Death))

// query: COc1cc(OC)nc(Oc2ccccc2C=NOCc2cccc3ccccc23)n1 [compound 22]
3 (11-40 (Medium damages))

// query: C=C(Cl)CON=Cc1ccccc1Oc1nc(OC)cc(OC)n1 [Compound No. 14]
5 (0-5 (Death))

// query: COc1cc(OC)nc(Oc2ccccc2C=NOCC=Cc2cccc(C)c2)n1 [Compound No. 34]
5 (0-5 (Death))

// query: COc1cc(OC)nc(Oc2ccccc2C=NOCC=Cc2ccc(Cl)cc2Cl)n1 [compound 30]
5 (0-5 (Death))

// query: COC(=O)c1ccccc1Oc1nc(OC)cc(OC)n1 [A, reference compound]
4 (6-10 (Severe damages))

// query: CC#CCON=Cc1ccccc1Oc1nc(OC)cc(OC)n1 [compound 10]
4 (6-10 (Severe damages))

// query: COc1cc(OC)nc(Oc2ccccc2C=NOCC=Cc2ccc(C(F)(F)F)cc2)n1 [compound 35]
5 (0-5 (Death))

// query: COc1cc(OC)nc(Oc2ccccc2C=NOCC=CCl)n1 [compound 11]
4 (6-10 (Severe damages))

// query: COc1cc(OC)nc(Oc2ccccc2C=NOCC=Cc2ccccc2)n1 [Compound No. 9]
5 (0-5 (Death))

// query: COc1cc(OC)nc(Oc2ccccc2C=NOCC=Cc2ccc(C)cc2)n1 [compound 36]
5 (0-5 (Death))

// query: COc1cc(OC)nc(Oc2ccccc2C=NOCC#Cc2ccccc2)n1 [compound 42]
5 (0-5 (Death))

// query: COc1cc(OC)nc(Oc2ccccc2C=NOCC=Cc2ccc(Cl)c(Cl)c2)n1 [compound 31]
4 (6-10 (Severe damages))

// query: COc1cc(OC)nc(Oc2ccccc2C=NOCC=C(C)C)n1 [Compound No. 7]
5 (0-5 (Death))

// query: COc1cc(OC)nc(Oc2ccccc2C=NOCC=C(C)Cl)n1 [compound 12]
4 (6-10 (Severe damages))

// query: C=CC(C)ON=Cc1ccccc1Oc1nc(OC)cc(OC)n1 (centres unmarked) [Compound No. 2]
4 (6-10 (Severe damages))

// query: COc1cc(OC)nc(Oc2ccccc2C=NOCC=Cc2ccccc2C)n1 [Compound No. 39]
4 (6-10 (Severe damages))

// query: COc1cc(OC)nc(Oc2ccccc2C=NOCC=Cc2ccc(F)cc2)n1 [compound 29]
3 (11-40 (Medium damages))

// query: COc1cc(OC)nc(Oc2ccccc2C=NOCC=Cc2cccc(Cl)c2)n1 [Compound No. 26]
5 (0-5 (Death))

Sourced from patent US5053070A
